Target: TLR8 (Homo sapiens (Human), UniProt Q9NR97)
Sequence (Q9NR97 27-1041): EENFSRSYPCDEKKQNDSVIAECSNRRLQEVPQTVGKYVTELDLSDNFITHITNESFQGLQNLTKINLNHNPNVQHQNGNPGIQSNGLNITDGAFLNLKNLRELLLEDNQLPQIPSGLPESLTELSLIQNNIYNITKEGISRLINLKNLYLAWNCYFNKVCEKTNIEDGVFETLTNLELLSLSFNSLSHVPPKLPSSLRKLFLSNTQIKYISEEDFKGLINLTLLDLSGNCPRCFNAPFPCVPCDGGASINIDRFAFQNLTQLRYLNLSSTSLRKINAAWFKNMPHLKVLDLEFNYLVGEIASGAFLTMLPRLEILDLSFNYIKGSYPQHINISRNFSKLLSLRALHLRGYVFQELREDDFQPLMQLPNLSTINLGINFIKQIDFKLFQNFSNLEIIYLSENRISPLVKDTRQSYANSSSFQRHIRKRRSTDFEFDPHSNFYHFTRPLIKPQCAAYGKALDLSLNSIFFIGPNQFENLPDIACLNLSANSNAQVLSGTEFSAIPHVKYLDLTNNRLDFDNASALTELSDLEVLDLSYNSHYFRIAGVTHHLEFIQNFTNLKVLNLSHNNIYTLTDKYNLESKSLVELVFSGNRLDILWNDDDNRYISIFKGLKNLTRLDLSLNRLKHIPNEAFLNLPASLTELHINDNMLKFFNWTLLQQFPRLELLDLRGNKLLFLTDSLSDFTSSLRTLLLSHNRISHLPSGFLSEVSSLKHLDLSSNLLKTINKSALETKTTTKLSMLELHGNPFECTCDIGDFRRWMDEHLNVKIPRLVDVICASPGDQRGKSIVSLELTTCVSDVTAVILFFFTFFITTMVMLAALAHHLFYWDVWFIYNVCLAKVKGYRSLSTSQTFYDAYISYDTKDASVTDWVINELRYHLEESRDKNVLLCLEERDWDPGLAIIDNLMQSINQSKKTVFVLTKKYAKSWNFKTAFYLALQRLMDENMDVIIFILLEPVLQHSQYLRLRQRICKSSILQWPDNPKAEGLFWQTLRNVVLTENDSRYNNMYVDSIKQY
Test: TLR8 human peripheral blood mononuclear cell (PBMC) cell-based assay (Compound A as agonist; TNFα and IL12p40 readout)
Settings: human PBMCs, TLR8 agonist Compound A at 800 nM, 6 hours, antagonist potency; read-out: TLR-8 EC50
Protocol: After counting, the cell density was adjusted to 2 million cells/ml and incubated for 1 hour at 37° C., 5% CO2 for recovery. […] The level of cytokines (TNFα and IL12p40) in the supernatant was measured by electrochemiluminescence immunoassays (Mesoscale Discovery) following manufacturer's recommended protocols.
For each of the compounds below, state its EC50.
Value expressed in nM; do not type the unit.

Query: Notebook entry, TLR8 (Homo sapiens (Human), UniProt Q9NR97) assay: EC50 of Cc1c(C2CC3(CCCNC3)C2)sc2[nH]c(-c3cc(C)c4ncnn4c3)c(C(C)C)c12 (stereo not shown) = ?
Response: 1.71

Query: Notebook entry, TLR8 (Homo sapiens (Human), UniProt Q9NR97) assay: EC50 of COc1cc(-c2[nH]c3sc(C4CCNCC4)c(C)c3c2C(C)C)cn2ncnc12 = ?
Response: 8.94

Query: Notebook entry, TLR8 (Homo sapiens (Human), UniProt Q9NR97) assay: EC50 of Cc1c(-c2[nH]c3sc(C4CCN(C5CCNC5=O)CC4)c(C)c3c2C(C)C)cn2ncnc2c1C (stereo not shown) [Example 287] = ?
Response: 12.4

Query: Notebook entry, TLR8 (Homo sapiens (Human), UniProt Q9NR97) assay: EC50 of Cc1c(-c2[nH]c3sc(C4C[C@@H]5C[C@H]4CC5N4CCS(=N)(=O)CC4)c(C)c3c2C(C)C)cn2ncnc2c1C (stereo partly shown) = ?
Response: 21.4

Query: Notebook entry, TLR8 (Homo sapiens (Human), UniProt Q9NR97) assay: EC50 of Cc1c(-c2[nH]c3sc([C@@H]4C[C@@H]5C[C@H]4CN5CCC#N)c(C)c3c2C(C)C)cn2ncnc2c1C = ?
Response: 0.48

Query: Notebook entry, TLR8 (Homo sapiens (Human), UniProt Q9NR97) assay: EC50 of Cc1c(C2CCC3(CCNCC3)C2)sc2[nH]c(-c3cc(C)c4ncnn4c3)c(C(C)C)c12 (stereo not shown) = ?
Response: 10.7

Query: Notebook entry, TLR8 (Homo sapiens (Human), UniProt Q9NR97) assay: EC50 of Cc1c(C23CNCC2C3)sc2[nH]c(-c3cc(C)c4ncnn4c3)c(C(C)C)c12 (stereo not shown) = ?
Response: 2.87
